Data provenance: ChEMBL document CHEMBL2150993

Test system: SK-MEL-5
measurement-notes: Growth inhibition of human SK-MEL-5 cells after 48 hrs by cell counting analysis
Format: functional
settings: at 10 µM
reported-metric: growth inhibition (GI) (%)
Note: unit % is implicit; provide only the numeric part.

Q. Recorded growth inhibition (GI) of `O=C(CCN1CCN(c2ccccc2)CC1)Nc1nc(-c2ccc(Cl)cc2)cs1` , please.
A. 10.1

Q. Now the molecule `CN1CCN(CCC(=O)Nc2nc(-c3ccc(Br)cc3)cs2)CC1`
A. 76.2

Q. Now the molecule `O=C(CCCl)Nc1nc(-c2ccc(Cl)cc2)cs1`
A. 46.8

Q. Now the molecule `O=C(CN1CCN(c2ccccc2)CC1)Nc1nc(-c2ccc(Br)cc2)cs1`
A. 39.4

Q. Now the molecule `O=C(CN1CCN(c2ccccc2)CC1)Nc1nc(-c2ccc(Cl)cc2)cs1`
A. 11.7

Q. Now the molecule `Cn1cc(NC(=O)c2cc(NC(=O)CNC(=N)N)cn2C)cc1C(=O)NCCC(=N)N`
A. 23.7

Q. Now the molecule `CN1CCN(CCC(=O)Nc2nc(-c3ccc(Cl)cc3)cs2)CC1`
A. 46.1

Q. Now the molecule `Cc1ccc(-c2csc(NC(=O)CCCl)n2)cc1`
A. 16.6

Q. Now the molecule `Cc1ccc(-c2csc(NC(=O)CN3CCN(c4ccccc4)CC3)n2)cc1`
A. 27.6
